- Assay Protocol: Plasma clearance was determined after administering 1 mg/kg of compound intravenously in rat no.4 belonging to phenotype PM (poor metabolizer)
- Format: ADME, organism-based
- Set-up: dose 1 mg/kg, route intravenous
- Settings: iv
Measured Attribute: clearance (mL/min/kg)
Number in mL/min/kg, nothing else.

Summary for this molecule, COc1cc2ncnc(N3CCN(C(=O)Nc4ccc(C#N)cc4)CC3)c2cc1OC : clearance is 0.707

* * *

- Assay Protocol: Pharmacokinetic parameter (AUC) was determined after administering 30 mg/kg of compound orally in rat no.5 belonging to phenotype PM (poor metabolizer)
- Assay type: ADME, organism-based
- Design: dose 30 mg/kg, route oral
- Settings: in vivo, po
Measured Attribute: AUC (µg·h/mL)
Number in µg·h/mL, nothing else.

Summary for this molecule, COc1cc2ncnc(N3CCN(C(=O)Nc4ccc(C#N)cc4)CC3)c2cc1OC : AUC is 815
